Data provenance: the supplement of paper PMC10065799

Would you kindly list phosphorylation enrichment for each of these sequences?
# Measurement target: Fyn (UniProt P06241)
# Sequence (P06241 whole entry, looked up): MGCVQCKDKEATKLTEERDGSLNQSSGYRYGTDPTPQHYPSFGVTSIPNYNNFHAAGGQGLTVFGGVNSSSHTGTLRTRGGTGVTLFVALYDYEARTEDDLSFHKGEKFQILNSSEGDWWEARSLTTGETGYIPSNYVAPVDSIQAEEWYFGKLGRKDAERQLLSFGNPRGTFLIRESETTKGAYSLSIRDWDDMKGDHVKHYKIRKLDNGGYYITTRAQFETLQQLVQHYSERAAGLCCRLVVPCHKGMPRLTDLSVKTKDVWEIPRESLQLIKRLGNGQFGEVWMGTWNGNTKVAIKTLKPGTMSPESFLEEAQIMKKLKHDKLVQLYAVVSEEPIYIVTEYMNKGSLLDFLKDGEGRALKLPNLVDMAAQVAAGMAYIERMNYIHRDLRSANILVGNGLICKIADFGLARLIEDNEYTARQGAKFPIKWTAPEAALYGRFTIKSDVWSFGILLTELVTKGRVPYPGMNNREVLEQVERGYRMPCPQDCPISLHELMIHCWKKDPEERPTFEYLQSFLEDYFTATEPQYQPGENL
# Assay protocol: phosphorylation enrichment, bacterial display (enrichment ratio); higher = better substrate or ligand; peptides without Tyr show the background;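 also: 11-residue human phosphosite peptides and single-mutation variants displayed on the E. coli surface, counted by deep sequencing, each peptide's frequency after selection divided by its frequency in the unselected input library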;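 also: frequency after pTyr selection over input frequency; kinase dosed for 20-30% of maximal phosphorylation in three min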

For every record below, what is its phosphorylation enrichment?
1. ANNPLYKEATP [ITGB3_Y773_S778P]
2. IRTDAYVPAMT [RPE65_Y89_R91P]
3. VTPSEYLEIVR [TMEM130_Y412_E407V]
4. SSMIDYKPLEK [MYOC_Y479_N480K]
5. KDDEKYLDVSR [MTM1_Y260_I264S]
6. SDPIIYTLENI [ADGRE1_Y534]
7. ISKKRYAGLLF [POLD1_Y809]

1. 0.402
2. 0.302
3. 0.51
4. 0.434
5. 0.456
6. 7.17
7. 0.448

---

Would you kindly list phosphorylation enrichment for each of these sequences?
# Measurement target: FGFR3 (UniProt P22607)
# Sequence (P22607 whole entry, looked up): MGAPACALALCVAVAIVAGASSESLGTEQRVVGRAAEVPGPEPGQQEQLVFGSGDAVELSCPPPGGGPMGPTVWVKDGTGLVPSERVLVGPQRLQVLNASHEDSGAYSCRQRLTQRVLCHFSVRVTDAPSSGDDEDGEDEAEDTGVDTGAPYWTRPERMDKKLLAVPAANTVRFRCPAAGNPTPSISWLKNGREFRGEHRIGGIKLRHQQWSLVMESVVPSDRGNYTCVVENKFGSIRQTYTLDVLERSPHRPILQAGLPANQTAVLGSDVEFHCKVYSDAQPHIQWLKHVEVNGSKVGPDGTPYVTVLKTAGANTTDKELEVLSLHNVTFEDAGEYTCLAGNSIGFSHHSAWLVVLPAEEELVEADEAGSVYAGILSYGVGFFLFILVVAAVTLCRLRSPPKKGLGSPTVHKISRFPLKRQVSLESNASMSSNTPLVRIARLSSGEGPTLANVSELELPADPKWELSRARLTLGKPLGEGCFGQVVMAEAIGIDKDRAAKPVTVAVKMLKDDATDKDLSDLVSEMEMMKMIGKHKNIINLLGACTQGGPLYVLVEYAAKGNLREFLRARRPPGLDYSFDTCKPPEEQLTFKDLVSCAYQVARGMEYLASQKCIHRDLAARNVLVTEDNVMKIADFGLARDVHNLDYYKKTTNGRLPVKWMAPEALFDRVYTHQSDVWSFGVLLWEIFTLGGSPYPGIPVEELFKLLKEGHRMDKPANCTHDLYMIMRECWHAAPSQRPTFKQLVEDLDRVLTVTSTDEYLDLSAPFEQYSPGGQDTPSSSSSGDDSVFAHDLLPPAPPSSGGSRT
# Assay protocol: phosphorylation enrichment, bacterial display (enrichment ratio); higher = better substrate or ligand; peptides without Tyr show the background
Numbers only.

As a guide, the following entries are already answered.
# Sequence content, Measurement target, phosphorylation enrichment
data = [
    ("DPLASYLDKVR [KRT10_Y160_R156P]", "FGFR3 (UniProt P22607)", 0.534),
    ("GVLKEYGVKVL [CPS1_Y529]", "FGFR3 (UniProt P22607)", 0.569),
    ("RQNQEYEILMD [KRT39_Y379_L383M]", "FGFR3 (UniProt P22607)", 0.847),
]

For every record below, what is its phosphorylation enrichment?
1. RAIELCNDKEK [OTULIN_Y244_Y244C]
2. ISIFRYAKGQP [MPZ_Y82_H81R]
3. EVRAQYEEIAQ [KRT76_Y361]

0.425
0.685
0.98

For every record below, what is its phosphorylation enrichment?
1. LGRTVYADCLA [ABCA4_Y2063_L2060R]
2. ARVANYQRDGP [CAT_Y386]
3. SFPSFYTSHVQ [NEFL_Y443_YF]

1.37
0.526
0.609

---

# Measurement target: Hck (UniProt P08631)
# Sequence (P08631 whole entry, looked up): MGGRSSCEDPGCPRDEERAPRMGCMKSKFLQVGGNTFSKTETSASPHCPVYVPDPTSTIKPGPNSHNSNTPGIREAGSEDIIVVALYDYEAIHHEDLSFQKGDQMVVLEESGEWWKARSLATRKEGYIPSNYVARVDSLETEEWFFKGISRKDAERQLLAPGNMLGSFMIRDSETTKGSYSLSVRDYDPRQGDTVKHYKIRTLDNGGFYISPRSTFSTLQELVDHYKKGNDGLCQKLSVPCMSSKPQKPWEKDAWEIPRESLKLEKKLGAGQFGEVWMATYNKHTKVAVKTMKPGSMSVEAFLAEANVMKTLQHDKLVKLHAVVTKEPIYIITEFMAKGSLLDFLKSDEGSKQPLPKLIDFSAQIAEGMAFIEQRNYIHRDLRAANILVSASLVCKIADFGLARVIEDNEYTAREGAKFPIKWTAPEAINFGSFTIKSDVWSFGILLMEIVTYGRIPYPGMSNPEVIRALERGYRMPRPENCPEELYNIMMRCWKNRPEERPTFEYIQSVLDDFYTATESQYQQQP
# Assay protocol: phosphorylation enrichment, bacterial display (enrichment ratio); higher = better substrate or ligand; peptides without Tyr show the background
Measured attribute: phosphorylation enrichment
Give bare numbers.

As a guide, the following entries are already answered.
# Sequence content, Measurement target, phosphorylation enrichment
rows = [
    ("MANFVYKAGPS [MAML2_Y515_M514V_YF]", "Hck (UniProt P08631)", 0.499),
    ("RQNQEYEILMD [KRT39_Y379_L383M]", "Hck (UniProt P08631)", 0.695),
    ("RICRRYCQVLN [IQCF1_Y144_R141C]", "Hck (UniProt P08631)", 0.7),
]

# evaluate next
State phosphorylation enrichment on Hck (UniProt P08631). Entry: IEKLTYIDKWF [CPS1_Y872] 0.492

---

Would you kindly list phosphorylation enrichment for each of these sequences?
# Tested on: Fer (mouse)
# Assay protocol: phosphorylation enrichment, bacterial display (enrichment ratio); higher = better substrate or ligand; peptides without Tyr show the background
Give bare numbers.

As a guide, the following entries are already answered.
# Sequence content, phosphorylation enrichment
records = [
    ("ETEMLYGSARR [PRC1_Y464_P468R]", 1.27),
    ("PVPKTYDMLNA [PKP2_Y108_K112N]", 0.542),
    ("MEIHAYRKLLE [LMNA_Y376]", 0.527),
]

For every record below, what is its phosphorylation enrichment?
1. RQNRFYDAKVR [FKBP6_Y188]
2. QLQVFYATLDQ [MIPEP_Y579]

0.605
2.77

For every record below, what is its phosphorylation enrichment?
1. TNITEYCRDLI [RECQL_Y492_K487T]
2. EVESPYEVHDY [GIGYF2_Y1168]
3. LSVISYDLGMF [GBA3_Y174_M172I]
4. NFFDLYGGEKF [PTPN11_Y66_D61N_YF]

[0.491, 9.16, 0.415, 0.553]

For every record below, what is its phosphorylation enrichment?
1. LEEFQYIGELQ [MSH2_Y856_S860L]
2. MSNSAYVKREV [SCN1A_Y1694_F1692S]

0.656
0.37

For every record below, what is its phosphorylation enrichment?
1. VMAALYGRLFE [BTD_Y536_T532M_YF]
2. QTPVLYAMLFH [MPZ_Y220_D224Y_YF]
3. YECKWYIPLTD [BCR_Y756_D752E]

0.612
6.25
0.657
